Values were extracted from PubChem BioAssay (EPA / NIEHS).

- Measured Target: Heat shock factor protein 1 (Homo sapiens)
- Assay Name: ATG_HSE_CIS: Attagene CIS-FACTORIAL HepG2 Assay for human Heat Shock Transcription Factor 1 (HSE) (AID 2282953)
- Condition: HepG2 HSE cis-reporter, Attagene RNA transcription; actives raise or lower the signal
The source made the active and inactive calls. The calls were made as follows: active = hit-call score of the fitted dose curve at least 0.9, where 1 is the maximum; inactive = score below 0.9.
Possible outcomes: YES for active, NO for inactive

> print(dat)
                                  structure  answer.label
1              CCOP(=S)(OCC)Oc1ccc(Cl)cc1Cl            NO
2  O=c1[nH]c2ccccc2n1C1CCN(CCCC(c2ccc(F)cc2)c2ccc(F)cc2)CC1            NO
3                      O=C(O)COc1ccc(Cl)cc1            NO
4                  CC(C)N(C(=O)CCl)c1ccccc1           YES

----------
- Assay Name: ATG_VDRE_CIS: Attagene CIS-FACTORIAL HepG2 Assay for human Vitamin D Receptor Element (VDRE) (AID 2282968)
- Condition: HepG2 VDRE cis-reporter transcription, actives raise or lower the signal
Activity calls are given as the source filed them. Rule for the calls: active = hit-call score of the fitted dose curve at least 0.9, where 1 is the maximum; inactive = score below 0.9.
Outcomes: 1 (active), -1 (inactive)

> print(dat)
                                    compound  answer.label
 1                         NC(=O)c1ccc(N)nc1            -1
 2                              N#Cc1ccccc1N            -1
 3                            ClCc1ccccc1CCl             1
 4               C[CH2][Hg][S]c1ccccc1C(=O)O             1
 5                               C=CCOC(N)=O            -1
 6   O=S(=O)(c1ccc(Cl)cc1)c1cc(Cl)c(Cl)cc1Cl             1
 7                           BrCc1ccc(Br)cc1            -1
 8                             CN(N=O)C(N)=O            -1
 9                                   N#CCC#N            -1
10  CC(C)[C@@H](Nc1ccc(C(F)(F)F)cc1Cl)C(=O)OC(C#N)c1cccc(Oc2ccccc2)c1 (some centres not stated)             1
11                               N#Cc1cccnc1            -1
12  Clc1cnc(Oc2ccc(Oc3ncc(Cl)cc3Cl)cc2)c(Cl)c1             1
13  CCCSP(=S)(OCC)Oc1ccc(Cl)cc1Cl (configuration not stated)            -1
14                         CC(C)(C)c1ccccc1O             1
15             COP(=S)(OC)Oc1cc(Cl)c(I)cc1Cl             1
16  [F][Sn]([c]1ccccc1)([c]1ccccc1)[c]1ccccc1             1
17                            CCCCCCCCCCCCBr            -1
18  C#CCOC(=O)/C=C(C)/C=C/CC(C)CCCC(C)C (configuration not stated)            -1
19  CC(C)(C)c1cc([N+](=O)[O-])cc(C(C)(C)C)c1O             1
20  CC(C=O)Cc1ccc2c(c1)OCO2 (configuration not stated)             1
21  CC(C)(COCC1CO1)COCC1CO1 (configuration not stated)             1
22    CC1CC(=O)O1 (configuration not stated)            -1
23  C=CC(=O)[O][Sn]([CH2]CCC)([CH2]CCC)[CH2]CCC             1
24                           CCCCS(=O)(=O)Cl            -1
25                      CN(C1CCCCC1)C1CCCCC1            -1
26                        C1CCC(C2CCCCC2)CC1            -1
27                 O=C(Cc1ccccc1)OCCc1ccccc1            -1

----------
- Read-out: Transforming growth factor beta 1 (TGFb1), TGFB1 (gene 7040)
- Assay Name: BSK_BE3C_TGFb1: BioMAP Diversity Plus: BE3C Assay for Transforming growth factor beta 1 (TGFb1) Biomarker Activity (AID 2283036)
- Condition: primary human bronchial epithelial cells; actives raise or lower the signal
The source made the active and inactive calls. Rule for the calls: active = hit-call score of the fitted dose curve at least 0.9, where 1 is the maximum; inactive = score below 0.9.
Classes used: true (1) (active), false (0) (inactive)

> print(dat)
                                    molecule  answer.label
 1     Cc1ccccc1OP(=O)(Oc1ccccc1C)Oc1ccccc1C      true (1)
 2                               COc1ccccc1N     false (0)
 3          CCOP(=S)(OCC)SCS(=O)(=O)C(C)(C)C     false (0)
 4                O=C(O)COc1cc(Cl)c(Cl)cc1Cl     false (0)
 5  CCC(C)(C#N)N=NC(C)(C#N)CC (stereo not given)     false (0)
 6                O=[N+]([O-])c1cccc2ccccc12     false (0)
 7                               O=C(CCl)NCO     false (0)
 8                          Clc1cccc(Cl)c1Cl     false (0)
 9  CCOC(=O)CCN(SN(C)C(=O)Oc1cccc2c1OC(C)(C)C2)C(C)C     false (0)
10           O=[N+]([O-])c1ccc(Nc2ccccc2)cc1     false (0)
11  CC(C=O)Cc1ccc2c(c1)OCO2 (stereo not given)     false (0)
12                              OCCN(CCO)CCO     false (0)
13   O=S(=O)(c1ccc(Cl)cc1)c1cc(Cl)c(Cl)cc1Cl     false (0)
14                       Oc1c(Cl)cc(Cl)cc1Cl     false (0)
15                               N#Cc1cccnc1     false (0)
16                      Oc1cccc(-c2ccccc2)c1     false (0)
17          CCCCCCCCCCCCc1cccc(S(=O)(=O)O)c1      true (1)
18  CC1(C)[C@H](C(=O)O[C@H](C#N)c2cccc(Oc3ccccc3)c2)[C@@H]1/C=C(\Cl)C(F)(F)F     false (0)
19  CC(C)O.CC(C)O.OCCN(CCO)CCO.OCCN(CCO)CCO.[Ti]     false (0)
20  Cc1ccc(OP(=O)(Oc2ccc(C)cc2C)Oc2ccc(C)cc2C)c(C)c1     false (0)

----------
- Assay Name: ATG_MRE_CIS: Attagene CIS-FACTORIAL HepG2 Assay for human Metal Responsive Element (MRE) (AID 2282954)
- Condition: HepG2 MRE cis-reporter transcription, Attagene multiplex; actives raise or lower the signal
- Protocol: ATG_CIS is a cell-based, multiplexed-readout assay that uses HepG2, a human liver cell line, with measurements taken at 24 hours after chemical dosing in a 24-well plate.ATG_MRE_CIS is one of 52 assay component(s) measured or calculated from the ATG_CIS assay. […] This assay endpoint, ATG_MRE_CIS, was analyzed with bidirectional fitting relative to DMSO as the negative control and baseline of activity. […]
Calls of active or inactive are those of the source. The calls were made as follows: active = hit-call score of the fitted dose curve at least 0.9, where 1 is the maximum; inactive = score below 0.9.
Labels: active, inactive

> print(dat)
                                    molecule  answer.label
 1  O=C1C[C@@H]2OCC=C3CN4CC[C@]56c7ccccc7N1[C@H]5[C@H]2[C@H]3C[C@H]46      inactive
 2              CCOP(=S)(OCC)Oc1ccc(Cl)cc1Cl      inactive
 3  Cc1cc(SCc2sc(-c3ccc(C(F)(F)F)c(F)c3)nc2C)ccc1OCC(=O)O        active
 4                         CCOC(=O)Cc1ccccc1      inactive
 5                          Clc1cccc(Cl)c1Cl      inactive
 6  CC(C=O)Cc1ccc2c(c1)OCO2 (stereo not given)      inactive
 7  CCCCCCCCCCCCCCC(Br)C(=O)O (stereo not given)        active
 8                               Nc1ncn[nH]1      inactive
 9       Brc1ccc(Oc2c(Br)cc(Br)cc2Br)c(Br)c1      inactive
10          CCCCCCCCCCCCc1cccc(S(=O)(=O)O)c1      inactive
11  O=S1(=O)OC(c2cc(Br)c(O)c(Br)c2)(c2cc(Br)c(O)c(Br)c2)c2ccccc21      inactive
12                        Nc1nc(=S)[nH][nH]1      inactive
13                         CCOc1cc(C=O)ccc1O      inactive
14       CC(C)(C)c1ccc(CCOc2ncnc3ccccc23)cc1      inactive
15       CCCCOC(=O)COC(=O)c1ccccc1C(=O)OCCCC      inactive
16                        C1CCC(C2CCCCC2)CC1      inactive
17             Cc1cccc(N=Nc2ccc(N(C)C)cc2)c1      inactive
18            c1ccc(-c2cccc(-c3ccccc3)c2)cc1      inactive
19  CCOC(=O)C(SP(=S)(OC)OC)c1ccccc1 (stereo not given)        active
20  CCC[CH2][Sn]([CH2]CCC)([CH2]CCC)[CH2]CCC      inactive
21                                      N#CS      inactive
22                CC(c1ccc(O)cc1)c1ccc(O)cc1        active
23                     O=C1C=CC(=O)c2ccccc21      inactive
24                 c1ccc2sc(SNC3CCCCC3)nc2c1        active
25                O=C(O)COc1cc(Cl)c(Cl)cc1Cl      inactive
26  CC(C)(c1ccc(O)c(-c2ccccc2)c1)c1ccc(O)c(-c2ccccc2)c1        active
27     N#CCCC(Br)(C#N)CBr (stereo not given)        active
28                      Oc1cccc(-c2ccccc2)c1      inactive
29  CC1(C)[C@H](C(=O)O[C@H](C#N)c2cccc(Oc3ccccc3)c2)[C@@H]1/C=C(\Cl)C(F)(F)F      inactive
30                                    OCCCCO      inactive
